- measuredTarget: human PD-L1 (Homo sapiens (Human))
- Sequence (Q9NZQ7 19-239): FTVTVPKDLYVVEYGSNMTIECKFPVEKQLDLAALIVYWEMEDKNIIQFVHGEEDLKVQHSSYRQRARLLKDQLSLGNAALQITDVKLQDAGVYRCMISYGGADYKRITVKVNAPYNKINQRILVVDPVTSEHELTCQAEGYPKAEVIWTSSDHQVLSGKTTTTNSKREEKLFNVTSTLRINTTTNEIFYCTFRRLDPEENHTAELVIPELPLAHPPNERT
- assayRemarks: Enzyme-Linked Immunosorbent Assay (ELISA), PD-1/PD-L1 binding
- condition: PD-1/PD-L1 ELISA, human PD-L1 coated plates, Table 1
Each record here notes measured IC50.
measurementLabel: IC50

INSERT INTO results (molecule, measurementlabel, result) VALUES
  ('COc1cc(-c2cccc(-c3cccc(NC(=O)c4cnc(N)cn4)c3C)c2C)cc(F)c1CN1CC(C(=O)O)C1 [Example 1.332]', 'IC50', '< 0.01 µM'),
  ('COc1cc(-c2cccc(-c3cccc(NC(=O)c4cccn(CC(=O)O)c4=O)c3C)c2C)cc(F)c1CN [Example 1.291]', 'IC50', '1 to 10 µM'),
  ('COc1cc(-c2cccc(-c3cccc(NC(=O)c4c[nH]c(=O)n(C)c4=O)c3C)c2C)cc(F)c1CNC1CCOC1 (stereo not shown) [Example 1.224]', 'IC50', '< 0.01 µM'),
  ('COc1cc(-c2cccc(-c3cccc(NC(=O)c4cncn(C)c4=O)c3C)c2C)cc(F)c1CNC1CCC1 [Example 1.202]', 'IC50', '< 0.01 µM'),
  ('COc1cc(-c2cccc(-c3cccc(Nc4nccc5c4C(=O)N(C)CC5)c3C)c2C)cc(F)c1CN1CC(C(=O)O)C1 [Example 1.265]', 'IC50', '< 0.01 µM'),
  ('COc1cc(-c2cccc(-c3cccc(NC(=O)c4cncn(C)c4=O)c3C)c2C)cc(F)c1CN[C@H](C)CO [Example 1.204]', 'IC50', '< 0.01 µM'),
  ('COc1cc(-c2cccc(-c3cccc(NC(=O)c4nccs4)c3C)c2C)cc(F)c1CN1CC(C(=O)O)C1 [Example 1.346]', 'IC50', '0.01 to 1 µM'),
  ('COc1cc(-c2cccc(-c3cccc(NC(=O)c4cncn(C)c4=O)c3C)c2C)cc(F)c1CNCCS(=O)(=O)O [Example 1.260]', 'IC50', '< 0.01 µM'),
  ('COc1cc(-c2cccc(-c3cccc(NC(=O)C4CN(C)CCO4)c3C)c2C)cc(F)c1CN (stereo not shown) [Example 1.315]', 'IC50', '0.01 to 1 µM'),
  ('COC(=O)c1ccc(C(=O)Nc2cccc(-c3cccc(-c4cc(F)c(CNCCO)c(OC)c4)c3C)c2C)nc1 [Example 1.334]', 'IC50', '0.01 to 1 µM'),
  ('COc1cc(-c2cccc(-c3cccc(NC(=O)c4c[nH]c(=O)n(C)c4=O)c3C)c2C)cc(F)c1CNC[C@H](C)O [Example 1.223]', 'IC50', '< 0.01 µM'),
  ('COc1cc(-c2cccc(-c3cccc(NC(=O)c4ccccn4)c3C)c2C)cc(F)c1CNCCO [Example 1.396]', 'IC50', '< 0.01 µM'),
  ('COc1cc(-c2cccc(-c3cccc(NC(=O)c4ccccn4)c3C)c2C)cc(F)c1CNCC(=O)O [Example 1.385]', 'IC50', '0.01 to 1 µM'),
  ('COc1cc(-c2cccc(-c3cccc(NC(=O)c4c[nH]c(=O)n(C)c4=O)c3C)c2C)cc(F)c1CN[C@H](C)CO [Example 1.225]', 'IC50', '< 0.01 µM'),
  ('COc1cc(-c2cccc(-c3cccc(NC(=O)c4c[nH]c(=O)n(C)c4=O)c3C)c2C)cc(F)c1CNC1CNC1 [Example 1.212]', 'IC50', '0.01 to 1 µM'),
  ('COc1cc(-c2cccc(-c3cccc(NC(=O)c4cncn(C)c4=O)c3C)c2C)cc(F)c1CNCCO [Example 1.221]', 'IC50', '< 0.01 µM'),
  ('COc1cc(-c2cccc(-c3cccc(NC(=O)c4cncn(C)c4=O)c3C)c2C)cc(F)c1CN[C@H]1CCC(=O)NC1 [Example 1.255]', 'IC50', '< 0.01 µM'),
  ('COc1cc(-c2cccc(-c3cccc(NC(=O)c4ccccn4)c3F)c2C)cc(F)c1CN1CC(C(=O)O)C1 [Example 1.370]', 'IC50', '0.01 to 1 µM'),
  ('COc1cc(-c2cccc(-c3cccc(Nc4nccc5nccnc45)c3C)c2C)cc(F)c1CNCC(N)=O [Example 1.239]', 'IC50', '0.01 to 1 µM'),
  ('COc1cc(-c2cccc(-c3cccc(NC(=O)C4CNCCO4)c3C)c2C)cc(F)c1CNCCO (stereo not shown) [Example 1.324]', 'IC50', '0.01 to 1 µM'),
  ('COc1cc(-c2cccc(-c3cccc(Nc4nccc5c4C(=O)N(C)CC5)c3C)c2C)cc(F)c1CNCCO [Example 1.215]', 'IC50', '0.01 to 1 µM'),
  ('COc1cc(-c2cccc(-c3cccc(NC(=O)c4cccn(C)c4=O)c3C)c2C)cc(F)c1CNCCCC(=O)O [Example 1.279]', 'IC50', '< 0.01 µM'),
  ('COc1cc(-c2cccc(-c3cccc(NC(=O)c4cccn(C)c4=O)c3C)c2C)cc(F)c1CN1CC(C(=O)O)C1 [Example 1.301]', 'IC50', '< 0.01 µM'),
  ('COc1cc(-c2cccc(-c3cccc(NC(=O)c4ccccn4)c3C)c2C)cc(F)c1CN1CCC[C@@H](C(=O)O)C1 [Example 1.354]', 'IC50', '0.01 to 1 µM'),
  ('COc1cc(-c2cccc(-c3cccc(NC(=O)c4ccncn4)c3C)c2C)cc(F)c1CN1CC(C)(C(=O)O)C1 [Example 1.340]', 'IC50', '< 0.01 µM'),
  ('COc1cc(-c2cccc(-c3cccc(NC(=O)c4cnc(C)[nH]c4=O)c3C)c2C)cc(F)c1CN1CC(C(=O)O)C1 [Example 1.272]', 'IC50', '0.01 to 1 µM'),
  ('COc1cc(-c2cccc(-c3cccc(NC(=O)c4c[nH]c(=O)n(C)c4=O)c3C)c2C)cc(F)c1CNCCO [Example 1.270]', 'IC50', '< 0.01 µM'),
  ('COc1cc(-c2cccc(-c3cccc(NC(=O)c4ccccn4)c3C)c2Cl)cc(F)c1CN1CC(C(=O)O)C1 [Example 1.365]', 'IC50', '< 0.01 µM');
